Tested on: Dihydrofolate reductase (Homo sapiens, UniProt P00374)
Sequence (P00374 whole entry): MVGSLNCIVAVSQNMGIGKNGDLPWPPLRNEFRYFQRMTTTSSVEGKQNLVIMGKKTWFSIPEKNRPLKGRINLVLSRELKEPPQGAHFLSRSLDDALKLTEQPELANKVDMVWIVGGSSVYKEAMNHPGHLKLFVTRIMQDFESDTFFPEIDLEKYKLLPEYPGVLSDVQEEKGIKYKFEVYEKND
Protocol summary: Inhibitory activity against Dihydrofolate reductase (DHFR) isolated from CCRF-CEM human leukemia cells in experiment 2
Format: cell-free
Readout label: pIC50
Numbers only, as −log10 of the molar value.

pIC50 recorded for this compound, CN(Cc1cnc2nc(N)nc(N)c2n1)c1ccc(C(=O)NC(C(=O)O)C(F)(F)CC(=O)O)cc1 (racemic) , is 8.87

Data provenance: ChEMBL document CHEMBL1129679
